Numbers sourced from patent US11787785B2.

# System Tested: WIZ protein (HiBit-WIZ fusion protein) (Homo sapiens, UniProt O95785+Q96SW2)
# Construct: expressed in transfected cells
# Sequence (O95785 whole entry, the tested form may be a part): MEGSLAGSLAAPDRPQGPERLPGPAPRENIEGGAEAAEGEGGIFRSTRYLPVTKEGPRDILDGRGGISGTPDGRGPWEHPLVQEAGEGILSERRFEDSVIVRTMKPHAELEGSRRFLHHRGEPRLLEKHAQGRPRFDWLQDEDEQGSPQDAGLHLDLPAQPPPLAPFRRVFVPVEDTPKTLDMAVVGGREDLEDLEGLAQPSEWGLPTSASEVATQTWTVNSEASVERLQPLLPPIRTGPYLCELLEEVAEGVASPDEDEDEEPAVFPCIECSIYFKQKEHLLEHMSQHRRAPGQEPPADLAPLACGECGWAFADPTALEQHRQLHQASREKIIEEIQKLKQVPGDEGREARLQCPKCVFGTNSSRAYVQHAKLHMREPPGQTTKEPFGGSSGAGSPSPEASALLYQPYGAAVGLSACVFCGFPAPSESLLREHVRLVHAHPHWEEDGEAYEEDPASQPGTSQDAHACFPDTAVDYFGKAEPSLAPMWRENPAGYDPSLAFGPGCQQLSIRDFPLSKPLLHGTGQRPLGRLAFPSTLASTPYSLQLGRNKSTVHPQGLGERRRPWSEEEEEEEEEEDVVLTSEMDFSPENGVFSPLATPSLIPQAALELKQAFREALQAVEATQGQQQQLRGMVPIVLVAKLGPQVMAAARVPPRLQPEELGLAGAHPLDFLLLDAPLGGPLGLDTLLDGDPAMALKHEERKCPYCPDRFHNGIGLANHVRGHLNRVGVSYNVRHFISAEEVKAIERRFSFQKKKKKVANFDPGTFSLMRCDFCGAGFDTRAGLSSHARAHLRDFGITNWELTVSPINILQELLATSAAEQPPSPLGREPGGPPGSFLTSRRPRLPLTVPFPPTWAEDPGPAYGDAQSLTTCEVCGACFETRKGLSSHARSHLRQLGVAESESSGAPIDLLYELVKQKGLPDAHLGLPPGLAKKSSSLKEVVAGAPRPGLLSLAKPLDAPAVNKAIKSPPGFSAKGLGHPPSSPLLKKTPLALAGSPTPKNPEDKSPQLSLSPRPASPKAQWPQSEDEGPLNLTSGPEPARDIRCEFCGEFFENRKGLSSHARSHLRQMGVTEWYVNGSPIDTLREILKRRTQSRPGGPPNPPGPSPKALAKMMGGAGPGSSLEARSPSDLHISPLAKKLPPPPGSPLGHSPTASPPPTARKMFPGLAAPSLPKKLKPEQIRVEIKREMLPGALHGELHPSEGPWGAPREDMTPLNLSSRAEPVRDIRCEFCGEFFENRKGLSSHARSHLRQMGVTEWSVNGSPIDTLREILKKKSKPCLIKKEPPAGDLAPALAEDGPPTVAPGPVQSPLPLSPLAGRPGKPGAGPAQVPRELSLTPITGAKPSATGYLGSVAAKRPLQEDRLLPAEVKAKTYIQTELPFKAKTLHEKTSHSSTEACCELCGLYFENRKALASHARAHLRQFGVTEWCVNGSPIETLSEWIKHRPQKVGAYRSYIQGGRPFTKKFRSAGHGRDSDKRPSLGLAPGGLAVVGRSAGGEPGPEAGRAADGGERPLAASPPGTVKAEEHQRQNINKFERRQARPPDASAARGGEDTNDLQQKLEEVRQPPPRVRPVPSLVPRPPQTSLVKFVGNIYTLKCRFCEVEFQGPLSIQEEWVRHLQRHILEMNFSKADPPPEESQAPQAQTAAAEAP
# Sequence (Q96SW2 whole entry, the tested form may be a part): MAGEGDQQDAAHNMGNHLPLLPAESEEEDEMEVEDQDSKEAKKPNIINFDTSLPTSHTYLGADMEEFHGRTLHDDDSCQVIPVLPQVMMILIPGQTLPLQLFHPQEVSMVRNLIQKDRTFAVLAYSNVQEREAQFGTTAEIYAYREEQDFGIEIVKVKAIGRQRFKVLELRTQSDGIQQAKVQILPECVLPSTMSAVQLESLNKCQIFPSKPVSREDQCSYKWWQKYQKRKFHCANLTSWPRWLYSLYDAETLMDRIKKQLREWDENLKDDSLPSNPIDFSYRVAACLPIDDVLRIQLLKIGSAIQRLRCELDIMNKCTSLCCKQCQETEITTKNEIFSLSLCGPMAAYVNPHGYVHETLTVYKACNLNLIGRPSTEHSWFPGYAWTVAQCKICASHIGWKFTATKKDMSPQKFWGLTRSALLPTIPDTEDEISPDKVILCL
# Sequence (Q16531 whole entry partner, the tested form may be a part): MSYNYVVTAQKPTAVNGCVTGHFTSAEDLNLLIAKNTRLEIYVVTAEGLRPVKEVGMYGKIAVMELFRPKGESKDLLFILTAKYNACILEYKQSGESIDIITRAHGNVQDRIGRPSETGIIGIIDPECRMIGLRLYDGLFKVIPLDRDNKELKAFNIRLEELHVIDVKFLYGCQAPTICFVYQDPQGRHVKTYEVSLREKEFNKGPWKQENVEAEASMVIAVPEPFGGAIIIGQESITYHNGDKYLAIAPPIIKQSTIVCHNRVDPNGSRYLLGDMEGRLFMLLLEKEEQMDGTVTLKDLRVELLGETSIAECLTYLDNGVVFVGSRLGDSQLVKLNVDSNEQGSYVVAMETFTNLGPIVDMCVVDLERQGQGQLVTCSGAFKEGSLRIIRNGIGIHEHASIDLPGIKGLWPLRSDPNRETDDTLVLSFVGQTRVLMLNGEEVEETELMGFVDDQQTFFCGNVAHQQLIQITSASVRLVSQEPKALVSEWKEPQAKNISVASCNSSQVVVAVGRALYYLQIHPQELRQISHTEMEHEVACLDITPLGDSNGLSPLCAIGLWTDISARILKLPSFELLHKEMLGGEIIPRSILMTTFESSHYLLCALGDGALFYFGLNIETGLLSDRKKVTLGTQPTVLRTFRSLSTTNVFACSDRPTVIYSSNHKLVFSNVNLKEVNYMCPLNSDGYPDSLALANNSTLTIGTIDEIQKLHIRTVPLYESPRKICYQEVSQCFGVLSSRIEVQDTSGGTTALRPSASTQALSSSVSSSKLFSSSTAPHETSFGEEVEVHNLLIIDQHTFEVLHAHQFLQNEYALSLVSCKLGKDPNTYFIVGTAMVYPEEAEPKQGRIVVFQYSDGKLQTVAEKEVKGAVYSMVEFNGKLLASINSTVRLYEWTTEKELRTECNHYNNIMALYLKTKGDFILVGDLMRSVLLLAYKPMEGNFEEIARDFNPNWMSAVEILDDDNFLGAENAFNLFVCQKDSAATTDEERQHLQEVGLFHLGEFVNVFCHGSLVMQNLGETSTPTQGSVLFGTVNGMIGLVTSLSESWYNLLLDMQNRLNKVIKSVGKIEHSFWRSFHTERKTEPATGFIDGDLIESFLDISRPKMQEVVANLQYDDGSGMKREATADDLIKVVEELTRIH
# Test Name: Quantification of WIZ protein levels in HiBit tag fusion protein assay (WIZ HiBit assay in 293T cells)
# Format: cell-based
# Assay Context: HEK-293T, 100 − Amax, at 25 uM; 293T cells; read-out: % degradation of WIZ (100 − Amax)
Recorded Endpoint: Dmax at 25 µM (%)
Use % as the unit, but write only the number.

Here's what some known entries look like.
>>> endpoint_value("C[C@@H]1CN(Cc2ccn3ncc(N4CCC(=O)NC4=O)c3c2)CCN1Cc1cccnc1")
19
>>> endpoint_value("Cc1cn(-c2cnn3ccc(CN4CCN(CC(C)C)[C@@H](C)C4)cc23)c(=O)[nH]c1=O")
89
>>> endpoint_value("C[C@H]1CN(Cc2ccn3ncc(N4CCC(=O)NC4=O)c3c2)CCN1C(=O)C1CCCCC1")
37

Okay, now this compound:
Quick note, Dmax at 25 µM for `O=C1CCN(c2cnn3ccc(CC4CCN(S(=O)(=O)Cc5ccccc5)CC4)cc23)C(=O)N1` landed at 78

----------
# System Tested: WIZ protein (HiBit-WIZ fusion protein) (Homo sapiens, UniProt O95785+Q96SW2)
# Construct: expressed in transfected cells
# Test Name: Quantification of WIZ protein levels in HiBit tag fusion protein assay (WIZ HiBit assay in 293T cells)
# Assay type: cell-based
# Assay Context: WIZ HiBit assay in 293T cells; 10-point, 5-fold dose response, highest concentration 25 μM, about 18 hours; read-out: WIZ AC50
Recorded Endpoint: DC50
Lab note: write values as number then unit, every time.

Here's what some known entries look like.
>>> endpoint_value("C[C@H]1CN(Cc2ccn3ncc(N4CCC(=O)NC4=O)c3c2)CCN1CC1CC(F)(F)C1 [Example 205]")
"24 nM"
>>> endpoint_value("C[C@H]1C[C@H](Cc2ccn3ncc(N4CCC(=O)NC4=O)c3c2)CCN1CCC(F)(F)F [Example 276]")
"9 nM"
>>> endpoint_value("C[C@H]1C[C@H](Cc2ccn3ncc(N4CCC(=O)NC4=O)c3c2)CCN1C(=O)C1CC1 [Example 287]")
"15 nM"
>>> endpoint_value("C[C@H]1C[C@H](Cc2ccn3ncc(N4CCC(=O)NC4=O)c3c2)CCN1Cc1cccnc1 [Example 150]")
"0.3 nM"

Quick note, DC50 for C[C@H]1C[C@H](Cc2ccn3ncc(N4CCC(=O)NC4=O)c3c2)CCN1C1CCC1 [Example 280] landed at 8 nM

Quick note, DC50 for C[C@H]1C[C@H](Cc2ccn3ncc(N4CCC(=O)NC4=O)c3c2)CCN1CC1CCCCC1 [Example 143] landed at 4 nM

Quick note, DC50 for O=C1CCN(c2cnn3ccc(CC4CCN(CC5CCC(F)(F)CC5)CC4)cc23)C(=O)N1 [Example 4] landed at 5 nM

Quick note, DC50 for COC[C@H]1CN(Cc2ccn3ncc(N4CCC(=O)NC4=O)c3c2)CCN1CC1CCCCC1 [Example 244] landed at 1180 nM

Quick note, DC50 for CC(C)S(=O)(=O)N1CCC(Cc2ccn3ncc(N4CCC(=O)NC4=O)c3c2)CC1 [Example 85] landed at 38 nM

Quick note, DC50 for O=C1CCN(c2cnn3ccc(CN4CCN(Cc5ccncc5)CC4)cc23)C(=O)N1 [Example 176] landed at 1400 nM

Quick note, DC50 for O=C1CCN(c2cnn3ccc(CC4CCN(Cc5cc(F)cc(F)c5)CC4)cc23)C(=O)N1 [Example 44] landed at 43 nM

Quick note, DC50 for O=C1CCN(c2cnn3ccc(CC4CCN(Cc5ccc(F)cc5)CC4)cc23)C(=O)N1 [Example 23] landed at 144 nM

----------
# System Tested: WIZ protein (HiBit-WIZ fusion protein) (Homo sapiens, UniProt O95785+Q96SW2)
# Construct: expressed in transfected cells
# Test Name: Quantification of WIZ protein levels in HiBit tag fusion protein assay (WIZ HiBit assay in 293T cells)
# Type: cell-based
# Assay Context: HEK-293T, DMSO-normalized, curve-fitted percentage of WIZ-HiBit remaining at 25 uM; 293T cells; read-out: WIZ Amax
Lab note: class by remaining activity at 25 µM, see label 0 (below 20%), label 1 (20% to below 40%), label 2 (40% or more)

Which class is correct for the following compound? `O=C1CCN(c2cnn3ccc(CC4CCN(CC5CCC(F)(F)CC5)CC4)cc23)C(=O)N1`
label 0

Which class is correct for the following compound? `O=C1CCN(c2cnn3ccc(CN4C[C@H]5C[C@@H]4CN5CC4CCCCC4)cc23)C(=O)N1`
label 2

Which class is correct for the following compound? `CC(C)CN1[C@H](C)CN(Cc2ccn3ncc(N4CCC(=O)NC4=O)c3c2)C[C@@H]1C`
label 1

Which class is correct for the following compound? C[C@H]1CC(F)(Cc2ccn3ncc(N4CCC(=O)NC4=O)c3c2)CCN1CC1CCC(F)(F)CC1 (single isomer, unassigned)
label 1

Which class is correct for the following compound? `CC(C)CN1CC[C@@H](Cc2ccn3ncc(N4CCC(=O)NC4=O)c3c2)C[C@@H]1C`
label 0

Which class is correct for the following compound? `O=C1CCN(c2cnn3ccc(CC4CCN(C(=O)C5(C(F)(F)F)CC5)CC4)cc23)C(=O)N1`
label 2

Which class is correct for the following compound? CC(C)CN1CCC(Cc2ccn3ncc(N4CCC(=O)NC4=O)c3c2)C1 (stereo not drawn)
label 2

Which class is correct for the following compound? O=C1CCN(c2cnn3ccc(CC4CCN(CC5CCCOC5)CC4)cc23)C(=O)N1 (stereo not drawn)
label 0

Which class is correct for the following compound? `CC1(C)CN(Cc2ccn3ncc(N4CCC(=O)NC4=O)c3c2)CCN1CC1CCOCC1`
label 2

Which class is correct for the following compound? `O=C1CCN(c2cnn3ccc(CC4CCN(CC(CO)CO)CC4)cc23)C(=O)N1`
label 2

Which class is correct for the following compound? `C[C@H]1CN(Cc2ccn3ncc(N4CCC(=O)NC4=O)c3c2)CCN1C[C@@H]1CCC(F)(F)C1`
label 1

Which class is correct for the following compound? `O=C1CCN(c2cnn3ccc(CC4CCN(Cc5cccc(OC(F)(F)F)c5)CC4)cc23)C(=O)N1`
label 1

Which class is correct for the following compound? `COc1cccc(CN2CCC(Cc3ccn4ncc(N5CCC(=O)NC5=O)c4c3)CC2)c1`
label 1

----------
# System Tested: WIZ protein (HiBit-WIZ fusion protein) (Homo sapiens, UniProt O95785+Q96SW2)
# Construct: expressed in transfected cells
# Test Name: Quantification of WIZ protein levels in HiBit tag fusion protein assay (WIZ HiBit assay in 293T cells)
# Type: cell-based
# Assay Context: HEK-293T, 100 − Amax, at 25 uM; 293T cells; read-out: % degradation of WIZ (100 − Amax)
Recorded Endpoint: Dmax at 25 µM (%)
Use % as the unit, but write only the number.

# CC(C)CN1CCN(Cc2ccn3ncc(N4CCC(=O)NC4=O)c3c2)[C@@H](C)C1 [Example 222] with WIZ protein (HiBit-WIZ fusion protein) (Homo sapiens, UniProt O95785+Q96SW2): Dmax at 25 µM is 64

----------
# System Tested: WIZ protein (HiBit-WIZ fusion protein) (Homo sapiens, UniProt O95785+Q96SW2)
# Construct: expressed in transfected cells
# Test Name: Quantification of WIZ protein levels in HiBit tag fusion protein assay (WIZ HiBit assay in 293T cells)
# Type: cell-based
# Assay Context: WIZ HiBit assay in 293T cells; 10-point, 5-fold dose response, highest concentration 25 μM, about 18 hours; read-out: WIZ AC50
# Protocol: The HiBit system from Promega was used to develop high-throughput and quantitative assays to measure changes in WIZ protein levels in response to compounds. […] The complementary fragment of Nanoluciferase (known as LgBit, from Promega), was added to the HiBit tag to form an active Nanoluciferase enzyme whose activity can be precisely measured. In this way, the levels of a fusion protein with the HiBit tag can be quantified in cell lysates. […]
Cut-off 80 nM on DC50: below means 1, at or above means 0.

Consider the worked cases shown below.
>>> assigned_category("O=C1CCN(c2cnn3ccc(CN4CCN(CC5CC(F)(F)C5)CC4)cc23)C(=O)N1 [Example 174]")
0
>>> assigned_category("C[C@H]1C[C@H](Cc2ccn3ncc(-n4ccc(=O)[nH]c4=O)c3c2)CCN1C(=O)C1CC1 [Example 355]")
0
>>> assigned_category("CC(C)(C)OC(=O)N1CCCC(Cc2ccn3ncc(N4CCC(=O)NC4=O)c3c2)CC1 (centres unmarked) [Example 270]")
0

Please turn your attention to the following entry.
Record C[C@H]1C[C@H](Cc2ccn3ncc(N4CCC(=O)NC4=O)c3c2)CCN1CC(F)(F)C(F)F [Example 273] : is its DC50 strictly below 80 nM?
1
